Listing of entries alongside the reported growth.
- Test system: SW-620 colon
- experimentNotes: NCI-60 one-dose screen, 48 h (100 = growth as untreated, 0 = no growth, -100 = all killed)
- particulars: 10 µM unless noted
- Method: Growth inhibition of the SW-620 human tumor cell line is measured as a screen for anti-cancer activity. Cells are grown in 96 well plates and exposed to the test compound for 48 hours. Compounds are tested at a single concentration, which is 10^-5 M for most compounds. The reported endpoint is percent growth (GI% or GIPRCNT), where numbers from 0 - 100% represent growth inhibition, and numbers from -100% - 0 represent cell death. For example, a value of 40 represents 60% growth inhibition. […]
Compounds without any hit were thinned out: in the full panel of roughly 83,000, 20% have a hit. Activity calls are given as the source filed them. The calls were made as follows: active = growth percent below 10; inactive = the rest.

- compound: "COc1ccc(C2=NN(C=O)C(c3ccc(OS(=O)(=O)c4ccc(C)cc4)c(OC)c3)C2)cc1 (centres undefined)"
  systemTested: "SW-620 colon"
  growth: "48.3% (inactive)"

I am curious: what growth value has been reported for COc1ccc(NC(=O)/C=C/c2ccc(NC(=O)N3CCCC3)cc2)cn1 ?
106% (inactive)

Now the compound C=CCn1c(C)nc2cc(Nc3nc(N4CCOCC4)nc4nc[nH]c34)ccc21
93.1% (inactive)

Now the compound O=Cc1ccc2nc(C(Cl)(Cl)Cl)ccc2c1
98.3% (inactive)

----------
- Tested on: NCI-H322M lung
- experimentNotes: NCI-60 one-dose screen, 48 h
- particulars: 10 µM unless noted
Compounds without any hit were thinned out: in the full panel of roughly 83,000, 20% have a hit. Active and inactive are the calls of the source. Rule for the calls: active = growth percent below 10; inactive = the rest.
Result category, one only: yes for active, no for inactive

Previously resolved entries follow.
- compound: "O=C(C(Br)C(Br)c1ccccc1)C(Br)C(Br)c1ccccc1 (stereo unspecified)"
  assignedCategory: "no"
- compound: "CCCCCCCCCCCCCCCc1cc(O)ccc1[N+](=O)[O-]"
  assignedCategory: "no"
- compound: "O=C(CI)NCCNc1cccc2c(S(=O)(=O)O)cccc12"
  assignedCategory: "no"
- compound: "Nc1nc2ccc([C@@H]3Nc4ccc5[nH]ncc5c4[C@H]4[C@H]5CCC(C5)[C@H]43)cc2s1"
  assignedCategory: "yes"
- compound: "CCCc1n(Cc2ccc3ccccc3n2)cc[n+]1Cc1ccc2ccccc2n1"
  assignedCategory: "no"

Just curious, what result did Cc1ccc(N=CNN=C(N)N)cc1 get here?
no

Now the compound Oc1c(-c2cc(C(F)(F)F)[nH]n2)cc(Cl)c(OCc2ccc(Cl)cc2)c1-c1ccc(Cl)c(C(F)(F)F)c1
yes

Now the compound FC(F)(F)C1=NNC(c2ccc3ccccc3c2)=NN1
no

Now the compound CCCCCCCCCCCC1=NC(C)(C)CN1C(C)(C)CO
no

Now the compound O=S(=O)(NCC[C@@H]1C[C@H]1c1ccc2ccccc2c1)c1ccc(C(F)(F)F)cc1
no

Now the compound CC(C)=CCC[C@H](C)c1ccc(C)c2c1OCN(CCO)C2
no

----------
- Test system: MOLT-4 leukemia
- experimentNotes: NCI-60 one-dose screen, 48 h
- particulars: 10 µM unless noted
Compounds without any hit were thinned out: in the full panel of roughly 83,000, 20% have a hit. Calls of active or inactive are those of the source. The calls were made as follows: active = growth percent below 10; inactive = the rest.
Result category, one only: active, inactive

Previously resolved entries follow.
- compound: "COC(=O)CNS(=O)(=O)c1ccc2c(c1)Cc1cc(S(=O)(=O)NCC(=O)OC)ccc1-2"
  systemTested: "MOLT-4 leukemia"
  assignedCategory: "inactive"
- compound: "CSCCC1NC(=O)C(C(C)=Nc2ccccc2)=C1O (configuration not stated)"
  systemTested: "MOLT-4 leukemia"
  assignedCategory: "inactive"
- compound: "COc1ccc(-c2[nH]nc(N)c2-c2cc(OC)c(OC)c(OC)c2)cc1"
  systemTested: "MOLT-4 leukemia"
  assignedCategory: "active"
- compound: "c1ccc(C2=Nc3ccccc3SC2)cc1"
  systemTested: "MOLT-4 leukemia"
  assignedCategory: "inactive"
- compound: "O=C(N=Nc1c(Cl)c(O)c2ccccc2c1O)C(=O)Nc1cccc(C(F)(F)F)c1"
  systemTested: "MOLT-4 leukemia"
  assignedCategory: "inactive"

Just curious, what result did C=CC[C@]1(O)CC[C@H]2[C@@H]3CCc4cc(O)ccc4[C@H]3CC[C@@]21C get here?
inactive

Now the compound CNC(=O)c1cc(Oc2ccc(NC(=O)c3nc(S(C)(=O)=O)sc3-c3ccc(F)cc3)cc2)ccn1
inactive

Now the compound COc1cc2c(cc1OC)C(=O)C(Br)CC2 (configuration not stated)
inactive

Now the compound CCCCC(CCc1ccccn1)C(=O)c1ccccc1 (configuration not stated)
inactive

Now the compound CC1CN(CCCOC(=O)Nc2ccc(Cl)cc2)CCN1C(C)(C)C (configuration not stated)
inactive

Now the compound CCOC(=O)c1sc2nc(-c3cc4ccccc4o3)cc(-c3ccc(Cl)cc3)c2c1N
inactive

Now the compound COc1cc2c(cc1OCCCOc1cc3c(cc1OC)C(=O)N1CCC[C@H]1C=N3)C=CC(C)(C)O2
inactive

Now the compound Cc1ccc(N=CNN=C(N)N)cc1
inactive

Now the compound COc1ccc(NC(=O)c2ccc(C(F)(F)F)nc2Nc2ccc(Cl)cc2C)cc1Cl
active

Now the compound Oc1ccc(Nc2ncnc3c2sc2ncccc23)cc1
inactive

----------
- Tested on: BT-549 breast
- experimentNotes: NCI-60 one-dose screen, 48 h
- particulars: 10 µM unless noted
This is part of a sample that, as a whole, favours compounds with a hit. Of some 83,000 tested, about 20% had one in any assay. Active and inactive are the calls of the source. The calls were made as follows: active = growth percent below 10; inactive = the rest.
Result category, one only: TRUE for active, FALSE for inactive

- molecule: "C=CCn1c(C)nc2cc(Nc3nc(N4CCCC4)nc4nc[nH]c34)ccc21"
  systemTested: "BT-549 breast"
  assignedCategory: "TRUE"
- molecule: "COc1ccc(-c2n[nH]nc2-c2cc(OC)c3c(c2)OCO3)cc1"
  systemTested: "BT-549 breast"
  assignedCategory: "FALSE"
- molecule: "COc1ccc(-c2nsc3c2NC(=O)CC3c2cccc(F)c2)cc1 (stereo not given)"
  systemTested: "BT-549 breast"
  assignedCategory: "FALSE"
- molecule: "COc1ccc(NC(=O)c2ccc(C(F)(F)F)nc2Nc2ccc(Cl)cc2C)cc1Cl"
  systemTested: "BT-549 breast"
  assignedCategory: "FALSE"

Here is another molecule to look at.
Just curious, what result did CCN(CC)Cc1cc(Nc2nc(NC3CCC(N(C)C)CC3)c3ccccc3n2)ccc1OC (stereo not given) get here?
FALSE

----------
- Tested on: MALME-3M melanoma
- experimentNotes: NCI-60 one-dose screen, 48 h
- particulars: 10 µM unless noted
About 83,000 compounds went through this panel and 20% of them were active in at least one assay; those are over-represented in the sample as a whole. Calls of active or inactive are those of the source. How the source made its calls: active means growth percent below 10; inactive means the rest.
Result category, one only: active, inactive

Previously resolved entries follow.
- molecule: "CCCCCCCCCCCCCCCCS(=O)(=O)Nc1cc(C(=O)NN)cc(C(=O)NN)c1"
  assignedCategory: "inactive"
- molecule: "Fc1cnccc1-c1nc2ccc3[nH]ncc3c2c2c1CCCC2"
  assignedCategory: "inactive"
- molecule: "Clc1ccc(Nc2ncnc3c2sc2ncccc23)c(Cl)c1"
  assignedCategory: "inactive"
- molecule: "COc1cc2c(cc1I)-c1c(cc(OC)c(OC)c1OC)CC[C@@H]2NC(C)=O"
  assignedCategory: "inactive"
- molecule: "Oc1ccc(Cl)cc1-c1cc(-c2ccccc2Cl)[nH]n1"
  assignedCategory: "inactive"
- molecule: "COc1ccc2[nH]c(O)c(/C=c3/ccc4c(c3)N=C(c3ccc(C(F)(F)F)cc3)N=4)c2c1"
  assignedCategory: "inactive"

Just curious, what result did COc1cc2nccc(Oc3ccc(NC(=O)C4(C(=O)Nc5ccc(F)cc5)CC4)cc3)c2cc1OC(=O)c1ccc(N)cc1 get here?
inactive

Now the molecule O=C(NO)c1ccc(NCc2csc3ccccc23)cc1
inactive

Now the molecule COc1cccc(Cn2c(-c3nonc3NC(C)=O)nc3ccccc32)c1
inactive

Now the molecule O=C(CS)OCC(COC(=O)CS)(COC(=O)CS)COC(=O)CS
inactive

Now the molecule C=CCn1c(SCC(=O)Nc2ccc(/C(C)=N\O)cc2)nnc1-c1cc(-c2ccc(Cl)cc2)nc2ccccc12
inactive

----------
- Tested on: HCC-2998 colon
- experimentNotes: NCI-60 one-dose screen, 48 h
- particulars: 10 µM unless noted
Compounds without any hit were thinned out: in the full panel of roughly 83,000, 20% have a hit. Calls of active or inactive are those of the source. Rule for the calls: active = growth percent below 10; inactive = the rest.
Result category, one only: active, inactive

Previously resolved entries follow.
- molecule: "C=C(C)c1ccc(/C=N/NC(N)=S)cc1"
  assignedCategory: "inactive"
- molecule: "CN=C1C=C/C(=N/N=c2/ccn(O)cc2C)C=C1C"
  assignedCategory: "inactive"
- molecule: "CCCCCCCCCCC(C(O)c1ccccc1)N1CCCCC1 (stereo unspecified)"
  assignedCategory: "inactive"
- molecule: "O=c1[nH]c2cc(Cl)c(Cl)cc2o1"
  assignedCategory: "inactive"
- molecule: "CCCCCCCCCCCC1=NC(C)(C)CN1C(C)(C)CO"
  assignedCategory: "active"

Just curious, what result did CC(C)NC(=O)OCC#CCOC(=O)NC(C)C get here?
inactive

Now the molecule Cn1c(=O)c2c3c(oc2c2ccccc21)C(=O)c1ccccc1C3=O
inactive

Now the molecule COc1ccc(C2CC(c3cccc(Nc4ccnc5cc(Cl)ccc45)c3)=NN2c2ccc(Cl)cc2)cc1 (stereo unspecified)
active

Now the molecule Cc1cc(C)cc(CCCCCCCCCCCCCCCCCC(=O)O)c1
inactive

Now the molecule CC1(C)C(N(O)C(=O)Nc2ccc(Cl)cc2)N(c2ccc(Cl)cc2)C(=O)N1CC(=O)N/N=C/C=C/c1ccc([N+](=O)[O-])o1 (stereo unspecified)
active

Now the molecule CC(CN1CCN(CCOCCO)CC1)CN1c2ccccc2Sc2ccc(Cl)cc21 (stereo unspecified)
inactive
